Test system Ephrin type-A receptor 2 (Homo sapiens), Kd listed for each of the compounds. Also: in the data inactive means no Kd found up to 30 µM.
Activity calls are given as the source filed them.

Here's what some known entries look like.
[
  {
    "Compound": "COc1cc2nccc(Oc3ccc(NC(=O)C4(C(=O)Nc5ccc(F)cc5)CC4)cc3)c2cc1OC [CABOZANTINIB]",
    "Reported": "0.746 µM (active)"
  },
  {
    "Compound": "CN1CCN(c2nc(C3=C(c4c[nH]c5ccccc45)C(=O)NC3=O)c3ccccc3n2)CC1",
    "Reported": "> 30 µM (inactive)"
  },
  {
    "Compound": "Cc1cc(Nc2nc(N[C@@H](C)c3ncc(F)cn3)ncc2Cl)n[nH]1",
    "Reported": "> 30 µM (inactive)"
  }
]

Q: Dear colleague, I am looking for the recorded Kd of the following compound: "C=CC(=O)Nc1cccc(Nc2nc(Nc3ccc(N4CCN(C(C)=O)CC4)cc3OC)ncc2C(F)(F)F)c1"
Ans: > 30 µM (inactive)

---

A short record of Kd observed with Deoxycytidine kinase (Homo sapiens, UniProt P27707) follows.
Sequence (P27707 whole entry): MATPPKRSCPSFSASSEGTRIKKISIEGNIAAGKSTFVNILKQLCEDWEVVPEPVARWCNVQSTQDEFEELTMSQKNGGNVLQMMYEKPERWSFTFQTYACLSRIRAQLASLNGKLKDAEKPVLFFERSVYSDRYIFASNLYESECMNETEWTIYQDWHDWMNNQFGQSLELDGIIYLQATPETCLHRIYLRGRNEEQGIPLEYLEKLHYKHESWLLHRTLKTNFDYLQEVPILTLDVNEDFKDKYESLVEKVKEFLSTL
The source made the active and inactive calls.

Some compounds with known Kd results, for comparison:
[
  {
    "Compound": "O=C(O)c1ccc2c(c1)nc(Nc1cccc(Cl)c1)c1ccncc12 [SILMITASERTIB]",
    "Kd": "> 30 µM (inactive)"
  },
  {
    "Compound": "COc1cc2c(Oc3ccc4[nH]c(C)cc4c3F)ncnc2cc1OCCCN1CCCC1 [CEDIRANIB]",
    "Kd": "> 30 µM (inactive)"
  },
  {
    "Compound": "COc1cc2c(N3CCN(C(=O)Nc4ccc(OC(C)C)cc4)CC3)ncnc2cc1OCCCN1CCCCC1 [TANDUTINIB]",
    "Kd": "> 30 µM (inactive)"
  }
]

Q: What measured Kd goes with CN(c1ncccc1CNc1nc(Nc2ccc3c(c2)CC(=O)N3)ncc1C(F)(F)F)S(C)(=O)=O [PF-00562271] ?
Ans: > 30 µM (inactive)

Q: Ok, now Cc1cc(Nc2nc(N[C@@H](C)c3ncc(F)cn3)ncc2Cl)n[nH]1 [AZD-1480]
Ans: > 30 µM (inactive)

Q: Thanks! And NC(=O)c1ccc(N(C(N)=O)c2c(F)cccc2F)nc1-c1ccc(F)cc1F [VX-702] ?
Ans: > 30 µM (inactive)

Q: Now the compound C[C@@H]1COC(Nc2ccc3ncnc(Nc4ccc(OCc5nccs5)c(Cl)c4)c3c2)=N1 [VARLITINIB]
Ans: > 30 µM (inactive)

Q: Let us now turn to C=CC(=O)Nc1cc(Nc2nccc(-c3cn(C)c4ccccc34)n2)c(OC)cc1N(C)CCN(C)C [OSIMERTINIB]
Ans: > 30 µM (inactive)

---

Activity calls are given as the source filed them.
These molecules were tested on Mitogen-activated protein kinase kinase kinase 1 (Homo sapiens); Kd is the recorded read-out. Also: in the data inactive means no Kd found up to 30 µM.
Sequence (Q13233 whole entry): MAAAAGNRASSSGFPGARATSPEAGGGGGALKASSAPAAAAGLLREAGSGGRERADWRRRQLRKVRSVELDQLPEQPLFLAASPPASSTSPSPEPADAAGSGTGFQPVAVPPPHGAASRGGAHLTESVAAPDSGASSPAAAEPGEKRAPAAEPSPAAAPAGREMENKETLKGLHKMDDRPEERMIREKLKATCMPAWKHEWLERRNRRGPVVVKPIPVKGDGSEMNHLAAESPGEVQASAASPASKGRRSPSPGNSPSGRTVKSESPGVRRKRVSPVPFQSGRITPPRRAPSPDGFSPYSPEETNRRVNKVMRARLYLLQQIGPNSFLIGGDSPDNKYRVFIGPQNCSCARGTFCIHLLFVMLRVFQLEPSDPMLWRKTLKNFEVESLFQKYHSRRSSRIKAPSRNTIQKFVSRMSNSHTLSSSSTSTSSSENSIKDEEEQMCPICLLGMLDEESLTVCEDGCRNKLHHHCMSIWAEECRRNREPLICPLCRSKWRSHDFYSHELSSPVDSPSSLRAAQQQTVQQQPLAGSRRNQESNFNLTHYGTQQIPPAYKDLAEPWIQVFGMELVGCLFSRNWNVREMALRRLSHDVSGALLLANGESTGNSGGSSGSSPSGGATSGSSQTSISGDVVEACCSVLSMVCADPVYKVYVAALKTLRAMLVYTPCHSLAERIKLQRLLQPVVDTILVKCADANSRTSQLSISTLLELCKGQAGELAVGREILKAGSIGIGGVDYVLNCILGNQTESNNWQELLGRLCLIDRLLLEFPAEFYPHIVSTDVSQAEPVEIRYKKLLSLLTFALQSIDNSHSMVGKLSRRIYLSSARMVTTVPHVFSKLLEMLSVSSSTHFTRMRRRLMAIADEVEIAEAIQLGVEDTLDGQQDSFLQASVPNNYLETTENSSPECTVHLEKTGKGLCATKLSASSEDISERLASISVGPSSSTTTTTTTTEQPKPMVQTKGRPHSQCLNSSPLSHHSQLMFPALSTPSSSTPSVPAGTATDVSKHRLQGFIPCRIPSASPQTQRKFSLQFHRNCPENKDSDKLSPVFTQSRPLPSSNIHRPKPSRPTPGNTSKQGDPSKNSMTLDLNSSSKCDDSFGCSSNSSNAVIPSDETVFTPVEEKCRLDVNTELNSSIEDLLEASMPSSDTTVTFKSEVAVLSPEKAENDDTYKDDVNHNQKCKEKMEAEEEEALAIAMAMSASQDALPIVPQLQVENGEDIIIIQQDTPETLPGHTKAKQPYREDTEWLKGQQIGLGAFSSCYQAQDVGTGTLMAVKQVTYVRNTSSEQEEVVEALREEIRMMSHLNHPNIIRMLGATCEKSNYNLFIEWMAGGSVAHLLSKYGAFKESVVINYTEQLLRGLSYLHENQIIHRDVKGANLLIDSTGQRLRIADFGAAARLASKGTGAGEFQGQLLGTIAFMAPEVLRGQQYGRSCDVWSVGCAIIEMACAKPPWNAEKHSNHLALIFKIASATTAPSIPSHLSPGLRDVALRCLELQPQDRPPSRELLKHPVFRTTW

[
  {
    "Molecule": "CN1CCN(c2nc(C3=C(c4c[nH]c5ccccc45)C(=O)NC3=O)c3ccccc3n2)CC1",
    "Tested On": "Mitogen-activated protein kinase kinase kinase 1 (Homo sapiens)",
    "Reported": "> 30 µM (inactive)"
  },
  {
    "Molecule": "FC(F)(F)c1ccc(CNc2ccc(Cc3c[nH]c4ncc(Cl)cc34)cn2)cn1",
    "Tested On": "Mitogen-activated protein kinase kinase kinase 1 (Homo sapiens)",
    "Reported": "> 30 µM (inactive)"
  }
]

Q: Looking for the measured Kd of "CC(C)(O)CC(=O)NCCn1ccc2ncnc(Nc3ccc(Oc4cccc(C(F)(F)F)c4)c(Cl)c3)c21" , can you help?
Ans: > 30 µM (inactive)

Q: Okay, and "COc1ccc2c(OCc3nnc4ccc(-c5ccccc5)nn34)ccnc2c1" ?
Ans: > 30 µM (inactive)
